experiment: Study 2 hematology; type: in vivo, human; conditions: Before
Assign RBC to each entry below.

QUERY: Find the recorded RBC belonging to CC(C)(O)CC(=O)[O-].CC(C)(O)CC(=O)[O-].[Ca+2] [CaHMB, calcium β-hydroxy-β-methylbutryate, reference compound] and report it.
RESULT: 4.3 ×10^6/µL

QUERY: GET /values?readout=RBC&item= CC(C)(O)CC(=O)O [HMB-Acid Gel Sublingual, 3-hydroxy-3-methylbutyric acid]
RESULT: 4.3 ×10^6/µL

QUERY: I am curious: what RBC value has been reported for CC(C)(O)CC(=O)O [HMB-Acid Gel Swallow, 3-hydroxy-3-methylbutyric acid] ?
RESULT: 4.2 ×10^6/µL
